Recorded drug sensitivity score by entry
- Tested on: HEK293-SIE STAT3 Y640F
- TEST_METHOD_NOTES: drug sensitivity score (inhibition of STAT3 luciferase reporter); higher = stronger inhibition
- TEST_CONDITIONS: 6 h; IL6 0 ng/ml

Would you please look over these solved cases?
{"COMPOUND": "COC(=O)C[C@](O)(CCCC(C)(C)O)C(=O)O[C@@H]1C(OC)=C[C@]23CCCN2CCc2cc4c(cc2[C@H]13)OCO4 [homoharringtonine]", "ASSAY_METRIC": "drug sensitivity score", "VALUE_MEASURED": "36.6 DSS"}
{"COMPOUND": "COc1cc(Nc2ncc(F)c(Nc3ccc4c(n3)N(COP(=O)(O)O)C(=O)C(C)(C)O4)n2)cc(OC)c1OC [Fostamatinib]", "ASSAY_METRIC": "drug sensitivity score", "VALUE_MEASURED": "2.93 DSS"}
{"COMPOUND": "CC1(COc2ccc3c(c2)ncn3-c2ccc3cccc(N4CCC(N)CC4)c3n2)COC1 [Crenolanib]", "ASSAY_METRIC": "drug sensitivity score", "VALUE_MEASURED": "4.25 DSS"}

# input for lookup
What value of measured drug sensitivity score is listed for CN[C@@H]1C[C@H]2O[C@@](C)([C@@H]1OC)n1c3ccccc3c3c4c(c5c6ccccc6n2c5c31)C(=O)N[C@H]4O [UCN-01] ?
20.3 DSS

###

Recorded drug sensitivity score by entry
- Test system: HEK293-SIE STAT3 Y640F
- TEST_METHOD_NOTES: drug sensitivity score (inhibition of STAT3 luciferase reporter); higher = stronger inhibition
- TEST_CONDITIONS: 6 h; IL6 0 ng/ml
Could you give me the number in DSS? Just the number is fine.

Would you please look over these solved cases?
{"STRUCTURE": "CO[C@H]1C[C@@H]2CC[C@@H](C)[C@@](O)(O2)C(=O)C(=O)N2CCCC[C@H]2C(=O)O[C@H]([C@H](C)C[C@@H]2CC[C@@H](OCCO)[C@H](OC)C2)CC(=O)[C@H](C)/C=C(\\C)[C@@H](O)[C@@H](OC)C(=O)[C@H](C)C[C@H](C)/C=C/C=C/C=C/1C", "drug sensitivity score (DSS)": 8.9}
{"STRUCTURE": "COc1cc(Nc2c(C#N)cnc3cc(OCCCN4CCN(C)CC4)c(OC)cc23)c(Cl)cc1Cl", "drug sensitivity score (DSS)": 8.4}

# input for lookup
What value of measured drug sensitivity score is listed for C[C@H]1C[C@@H]2[C@H]([C@@H](O)C[C@@]3(C)[C@H]2CC[C@]3(O)C(=O)CO)[C@@]2(C)C=CC(=O)C=C12 ?
0.4

###

- Tested on: HEK293-SIE STAT3 Y640F
- TEST_METHOD_NOTES: drug sensitivity score (inhibition of STAT3 luciferase reporter); higher = stronger inhibition
- TEST_CONDITIONS: 6 h; IL6 0 ng/ml
Class t: drug sensitivity score at least 2 DSS. Class f: drug sensitivity score below 2 DSS.

{"COMPOUND": "O=S(=O)(c1cccc2cnccc12)N1CCCNCC1 [Fasudil]", "ASSIGNED_CATEGORY": "f"}
{"COMPOUND": "CN(Cc1cnc2nc(N)nc(N)c2n1)c1ccc(C(=O)N[C@@H](CCC(=O)O)C(=O)O)cc1 [Methotrexate]", "ASSIGNED_CATEGORY": "f"}
{"COMPOUND": "CN1CCN(CCOc2cc(OC3CCOCC3)c3c(Nc4c(Cl)ccc5c4OCO5)ncnc3c2)CC1 [Saracatinib]", "ASSIGNED_CATEGORY": "f"}

I'd appreciate it if you could say whether C[C@@H]1CC(=O)c2c(ccc3c2C(=O)c2cccc(O)c2C3=O)C1 [STA-21] has drug sensitivity score at least equal to 2 DSS.
t

###

- Tested on: HEK293-SIE STAT3 Y640F
- TEST_METHOD_NOTES: drug sensitivity score (inhibition of STAT3 luciferase reporter); higher = stronger inhibition
- TEST_CONDITIONS: 6 h; IL6 0 ng/ml
Class true (1): drug sensitivity score at least 2 DSS. Class false (0): drug sensitivity score below 2 DSS.

Past entries and their recorded results:
{"COMPOUND": "CNC(=O)c1ccccc1Sc1ccc2c(/C=C/c3ccccn3)n[nH]c2c1", "ASSIGNED_CATEGORY": "false (0)"}
{"COMPOUND": "COc1ncc(-c2ccc3nccc(-c4ccnnc4)c3c2)cc1NS(=O)(=O)c1ccc(F)cc1F", "ASSIGNED_CATEGORY": "true (1)"}
{"COMPOUND": "CNC(=O)c1cc(Oc2ccc(NC(=O)Nc3ccc(Cl)c(C(F)(F)F)c3)cc2)ccn1", "ASSIGNED_CATEGORY": "false (0)"}
{"COMPOUND": "CC(C)(C)c1cnc(CSc2cnc(NC(=O)C3CCNCC3)s2)o1", "ASSIGNED_CATEGORY": "true (1)"}
{"COMPOUND": "CO[C@@H](C(=O)N1Cc2[nH]nc(NC(=O)c3ccc(N4CCN(C)CC4)cc3)c2C1)c1ccccc1", "ASSIGNED_CATEGORY": "true (1)"}

I'd appreciate it if you could say whether Cc1sc2c(c1C)C(c1ccc(Cl)cc1)=N[C@@H](CC(=O)OC(C)(C)C)c1nnc(C)n1-2 [(+)-JQ1] has drug sensitivity score at least equal to 2 DSS.
false (0)

I'd appreciate it if you could say whether COc1c(C)cnc(Cn2cnc3c(Cl)nc(N)nc32)c1C has drug sensitivity score at least equal to 2 DSS.
true (1)

I'd appreciate it if you could say whether C=CCn1c(=O)c2cnc(Nc3ccc(N4CCN(C)CC4)cc3)nc2n1-c1cccc(C(C)(C)O)n1 has drug sensitivity score at least equal to 2 DSS.
true (1)

###

- Tested on: NK-92
- TEST_METHOD_NOTES: drug sensitivity score (viability inhibition); higher = more sensitive
- TEST_CONDITIONS: 72 h; IL2 2.5 ng/ml
ASSAY_METRIC: drug sensitivity score
Give your result as the value with the unit written after it.

Would you please look over these solved cases?
{"MOLECULE": "NC1(c2ccc(-c3nc4ccn5c(=O)[nH]nc5c4cc3-c3ccccc3)cc2)CCC1 [MK-2206]", "ASSAY_METRIC": "drug sensitivity score", "VALUE_MEASURED": "6.29 DSS"}
{"MOLECULE": "COc1ccc(-c2cc3c(C)nc(N)nc3n([C@H]3CC[C@H](OCCO)CC3)c2=O)cn1", "ASSAY_METRIC": "drug sensitivity score", "VALUE_MEASURED": "19.2 DSS"}
{"MOLECULE": "CC(C)n1nc(-c2ccc3oc(N)nc3c2)c2c(N)ncnc21 [INK128]", "ASSAY_METRIC": "drug sensitivity score", "VALUE_MEASURED": "10.7 DSS"}

What value of measured drug sensitivity score is listed for Cc1[nH]c2ccccc2c1CCNCc1ccc(/C=C/C(=O)NO)cc1 [Panobinostat] ?
21.8 DSS

What value of measured drug sensitivity score is listed for Cn1cc(CNCC2CCN(c3ncc(C(=O)NO)cn3)CC2)c2ccccc21 [Quisinostat] ?
13.8 DSS

What value of measured drug sensitivity score is listed for CC(C)(C)c1cnc(CSc2cnc(NC(=O)C3CCNCC3)s2)o1 [SNS-032] ?
19.2 DSS

What value of measured drug sensitivity score is listed for COc1cc(Nc2c(C#N)cnc3cc(OCCCN4CCN(C)CC4)c(OC)cc23)c(Cl)cc1Cl [Bosutinib] ?
7.49 DSS

What value of measured drug sensitivity score is listed for C[C@@]1(C(=O)Nc2ccc(F)nc2)CCCN1c1nc(Nc2cc(C3CC3)n[nH]2)c2cccn2n1 ?
5.6 DSS

What value of measured drug sensitivity score is listed for C=CCn1c(=O)c2cnc(Nc3ccc(N4CCN(C)CC4)cc3)nc2n1-c1cccc(C(C)(C)O)n1 [MK1775] ?
23 DSS

What value of measured drug sensitivity score is listed for CC(C)NC[C@@H](C(=O)N1CCN(c2ncnc3c2[C@H](C)C[C@H]3O)CC1)c1ccc(Cl)cc1 [GDC-0068] ?
0.75 DSS

What value of measured drug sensitivity score is listed for Cc1sc2c(c1C)C(c1ccc(Cl)cc1)=N[C@@H](CC(=O)OC(C)(C)C)c1nnc(C)n1-2 [(+)-JQ1] ?
3.16 DSS

What value of measured drug sensitivity score is listed for Cc1ccc(C(=O)Nc2ccc(CN3CCN(C)CC3)c(C(F)(F)F)c2)cc1C#Cc1cnc2cccnn12 [Ponatinib] ?
1.39 DSS

###

- Tested on: YT
- TEST_METHOD_NOTES: drug sensitivity score (viability inhibition); higher = more sensitive
- TEST_CONDITIONS: 72 h; IL2 2.5 ng/ml
Class criterion met: drug sensitivity score at least 9 DSS. Class criterion not met: drug sensitivity score below 9 DSS.

Past entries and their recorded results:
{"MOLECULE": "CC(C)(C)c1cnc(CSc2cnc(NC(=O)C3CCNCC3)s2)o1", "ASSIGNED_CATEGORY": "criterion met"}
{"MOLECULE": "Cc1sc2c(c1C)C(c1ccc(Cl)cc1)=N[C@@H](CC(=O)OC(C)(C)C)c1nnc(C)n1-2 [(+)-JQ1]", "ASSIGNED_CATEGORY": "criterion met"}
{"MOLECULE": "CC1(C)CCC(CN2CCN(c3ccc(C(=O)NS(=O)(=O)c4ccc(NCC5CCOCC5)c([N+](=O)[O-])c4)c(Oc4cnc5[nH]ccc5c4)c3)CC2)=C(c2ccc(Cl)cc2)C1", "ASSIGNED_CATEGORY": "criterion met"}
{"MOLECULE": "COc1ccc(-c2ccc3c(N4CCOC[C@@H]4C)nc(N4CCOC[C@@H]4C)nc3n2)cc1CO", "ASSIGNED_CATEGORY": "criterion met"}

I'd appreciate it if you could say whether COC(=O)C[C@](O)(CCCC(C)(C)O)C(=O)O[C@@H]1C(OC)=C[C@]23CCCN2CCc2cc4c(cc2[C@H]13)OCO4 has drug sensitivity score at least equal to 9 DSS.
criterion met

I'd appreciate it if you could say whether CS(=O)(=O)N1CCN(Cc2cc3nc(-c4cccc5[nH]ncc45)nc(N4CCOCC4)c3s2)CC1 has drug sensitivity score at least equal to 9 DSS.
criterion not met
